System: CCRF-CEM leukemia
procedure-details: NCI tumour cell line growth inhibition, 48 h
TGI for assorted molecules
result-type: TGI

{"columns": ["molecule", "result-type", "result"],
 "data": [
  ["CCOC(=O)N1CCC(=O)C(CNC23CC4CC(CC(C4)C2)C3)C1 (stereo not given)", "TGI", "35.9 µM"],
  ["CN(C)CCNC(=O)c1cccc(N(C)C(=O)c2ccccc2)c1[N+](=O)[O-]", "TGI", "> 100 µM"],
  ["NCC1OC(n2cnc3c(N)ncnc32)CC1O (stereo not given)", "TGI", "> 100 µM"],
  ["CC1=C(O)C(=O)C2C(=O)C1C1Cc3ccccc3C21 (stereo not given)", "TGI", "> 100 µM"],
  ["Cc1cc(Cc2cc(C)c(NC(=O)C(=O)C3CCC4=C(SC5C=CC=CC5N4)C3=O)c(C(C)C)c2)cc(C(C)C)c1NC(=O)C(=O)C1CCC2=C(SC3C=CC=CC3N2)C1=O (stereo not given)", "TGI", "> 100 µM"]
]}

###

Test system: SF-295 CNS
procedure-details: NCI tumour cell line growth inhibition, 48 h
result-type: TGI

{"columns": ["compound", "result"],
 "data": [
  ["O=C(c1ccccc1)C1OC1c1ccc([N+](=O)[O-])cc1 (centres undefined)", "46 µM"],
  ["O=c1[nH]nc(Cc2c[nH]c3ccccc23)o1", "> 100 µM"],
  ["Cc1cc(Cc2cc(C)c(NC(=O)C(=O)C3CCC4=C(SC5C=CC=CC5N4)C3=O)c(C(C)C)c2)cc(C(C)C)c1NC(=O)C(=O)C1CCC2=C(SC3C=CC=CC3N2)C1=O (centres undefined)", "> 100 µM"],
  ["COC(=O)c1cc(O)c2cc3c(cc2c1-c1cc(OC)c(OC)c(OC)c1)OCO3", "5.03 µM"],
  ["CCN(CC)CC(O)CNc1c2ccc([N+](=O)[O-])cc2nc2cc(OC)c(OC)cc12 (centres undefined)", "2.06 µM"],
  ["CCOc1ccc(N/C(=C(/C(Cl)=C(/Cl)N2CCCCC2)[N+](=O)[O-])n2nnc3ccccc32)cc1", "49 µM"],
  ["Cc1cccc(C(C)(C)C)c1NC(=O)CC1C(=O)Nc2ccccc2S1(=O)=O (centres undefined)", "20 µM"],
  ["N#CC(=N)c1ncn(-c2ccc(N)cc2)c1N", "> 100 µM"],
  ["Nc1c(C(=O)Nc2cccc(F)c2)sc2nc3c(cc12)C(=O)CCC3", "> 80 µM"]
]}

###

Listed next: entries and their corresponding TGI.
Tested on: HT29 colon
procedure-details: NCI tumour cell line growth inhibition, 48 h

{"columns": ["molecule", "TGI"],
 "data": [
  ["S=C(Nc1ccc(-c2nc3ccccc3[nH]2)cc1)Nc1ccc(-c2nc3ccccc3[nH]2)cc1", "> 100 µM"],
  ["Cc1cccc(C(C)(C)C)c1NC(=O)CC1C(=O)Nc2ccccc2S1(=O)=O (configuration not stated)", "16.3 µM"],
  ["CO/N=C(\\C)c1ccc(Nc2cc(-c3ccccc3)nc3ccc(OC)cc23)cc1", "> 100 µM"],
  ["CC(=O)c1c(C)[nH]c(-c2nc3ccc(N4CCN(C)CC4)cc3[nH]2)c1-c1ccc(N(C)C)cc1", "19.4 µM"],
  ["NCC1OC(n2cnc3c(N)ncnc32)CC1O (configuration not stated)", "> 100 µM"],
  ["CC(C)NC(=O)N(Nc1ccccc1)C(C)(C)C", "> 100 µM"],
  ["CN1C(=O)C2C3C=C4c5ccccc5N(c5ccccc5)C4(C2C1=O)[C@H]1C(=O)N(C)C(=O)[C@@H]31 (some centres not stated)", "> 100 µM"],
  ["CN(/N=C/c1cccc2cccnc12)c1ccc(Cl)cc1[N+](=O)[O-]", "> 100 µM"],
  ["O=C(Nc1ccc(-n2ccc3c(NC(=O)c4ccccc4)ncnc32)cc1)Nc1ccc(Cl)c(Cl)c1", "2.9 µM"],
  ["Cc1nc2ccccc2c(/C=C/c2ccc(Cl)cc2)c1C(=O)/C=C/c1ccc(C(F)(F)F)cc1", "0.54 µM"],
  ["Cc1csc(/C=C/C(=O)c2nnn(-c3ccnc4c(C(F)(F)F)cccc34)c2C)c1", "> 100 µM"],
  ["NCCOCCOCCNc1nc(-c2ccccc2)nc(N2CCN(c3ccccn3)CC2)n1", "17.6 µM"],
  ["NC(Cc1ccc(N(CCCl)CCCl)cc1)C(=O)NC(CCC(=O)O)C(=O)O (configuration not stated)", "> 100 µM"],
  ["COc1ccc(-c2cc(=O)c3cc(OC)ccc3[nH]2)cc1", "> 100 µM"],
  ["CC(C)=CCC[C@](C)(O)[C@H]1CC[C@]2(C)[C@@H]1CC[C@@H]1[C@@]3(C)CC/C(=N/O)C(C)(C)[C@@H]3CC[C@]12C", "20.8 µM"],
  ["O=C1CSC(c2ccccc2[N+](=O)[O-])N1c1ccc(-c2ccc(-n3c(-c4ccccc4)nc4ccccc4c3=O)cc2)cc1 (configuration not stated)", "> 100 µM"],
  ["COc1cc(C(=O)N2CCN(c3ncnc4ccccc34)CC2)c(N)cc1OCc1ccccc1", "27.4 µM"],
  ["COC1CC(COCc2ccccc2)CC(OC)O1 (configuration not stated)", "> 100 µM"],
  ["N#CC(=N)c1ncn(-c2ccc(N)cc2)c1N", "> 100 µM"],
  ["C[C@@]12CCC[C@@](C)(C(=O)O)C1CC[C@]13C[C@@](O)(CO)[C@](O)(CCC12)C3 (some centres not stated)", "> 100 µM"],
  ["Cc1c2c(c(O)c3c(O)cccc13)C(=O)C1(O)C(O)=C(C(=O)NCNc3ccc(C(N)=O)cn3)C(=O)C(N(C)C)C1C2 (configuration not stated)", "> 100 µM"],
  ["CC1CCCC(C(O)CC2CC(=O)NC(=O)C2)C1O (configuration not stated)", "> 100 µM"]
]}

###

System: HS 578T breast
procedure-details: NCI tumour cell line growth inhibition, 48 h
result-type: TGI (µM)

{"columns": ["molecule", "unit-spec", "comparator", "measured-number"],
 "data": [
  ["COc1cc(-c2cc(=O)c3c(O)c(CC=C(C)C)c(O)cc3o2)ccc1O", "µM", ">", 50],
  ["CCC/C(=N\\NC(=S)N1CC2CCC(CC2)C1)c1ccccn1", "µM", "=", 4.43],
  ["COC(=O)c1cc(O)c2cc3c(cc2c1-c1cc(OC)c(OC)c(OC)c1)OCO3", "µM", "=", 9.48],
  ["CC(=O)Nc1c(C)cc2c(nc3n2CCC3OC(C)=O)c1[N+](=O)[O-] (stereo not given)", "µM", ">", 100],
  ["CC(C)=CCC/C(C)=C/CC/C(C)=C/CC/C(C)=C/CC/C(C)=C/CC/C(C)=C/CC/C(C)=C/CC/C(C)=C/CC/C(C)=C/CO", "µM", ">", 100]
]}

###

System: DU-145 prostate
procedure-details: NCI tumour cell line growth inhibition, 48 h
result-type: TGI

{"columns": ["compound", "result"],
 "data": [
  ["COc1ccc(N2C(=O)C3c4[nH]c5ccc(Br)cc5c4C4CCC(C(C)(C)C)CC4C3C2=O)cc1 (stereo not given)", "> 100 µM"],
  ["O=c1cc(-c2cccc3c2Sc2ccccc2S3)oc(N2CCOCC2)c1", "20.5 µM"],
  ["Nc1c(C(=O)Nc2cccc(F)c2)sc2nc3c(cc12)C(=O)CCC3", "> 100 µM"],
  ["CC(=O)OC[C@@H](COC(=O)/C=C/c1ccc(O)cc1)OC1OC(CO)C(O)C(O)C1O (stereo not given in full)", "> 100 µM"],
  ["CC(=O)C1=C(O)C=C2Oc3c(C(=O)/C=C/c4c(Cl)cccc4Cl)c(O)c(C)c(O)c3[C@]2(C)C1=O", "6.31 µM"],
  ["CCN(CC)CC(O)CNc1c2ccc([N+](=O)[O-])cc2nc2cc(OC)c(OC)cc12 (stereo not given)", "1.3 µM"],
  ["O=C1C2=C(CC3=C(C2)CS(=O)(=O)C3)C(=O)C2=C1CC1=C(C2)CS(=O)(=O)C1", "> 87 µM"],
  ["CCOC(=O)C1(C(=O)OCC)OC(C)=NC1(C(=O)OC)C(=O)OC", "> 100 µM"],
  ["CC1SCc2nc3ccccc3n21 (stereo not given)", "> 100 µM"],
  ["S=C(Nc1ccc(-c2nc3ccccc3[nH]2)cc1)Nc1ccc(-c2nc3ccccc3[nH]2)cc1", "> 100 µM"]
]}

###

System: SNB-75 CNS
procedure-details: NCI tumour cell line growth inhibition, 48 h
Each item that follows carries a reported TGI.

{"columns": ["molecule", "unit-spec", "comparator", "TGI"],
 "data": [
  ["N=c1ccn(O)cc1/C=C1/C(=O)Nc2ccccc21", "µM", ">", 100],
  ["CCN(CC)CC(O)CNc1c2ccc([N+](=O)[O-])cc2nc2cc(OC)c(OC)cc12 (stereo not given)", "µM", "=", 1.88],
  ["O=c1ncc(F)cn1C1OC(CO)C(O)C1O (stereo not given)", "µM", ">", 65.1],
  ["CCOc1ccc(N/C(=C(/C(Cl)=C(/Cl)N2CCCCC2)[N+](=O)[O-])n2nnc3ccccc32)cc1", "µM", "=", 50.6],
  ["CC[C@@]1(C)CCC2c3ccc(O)cc3CC[C@H]2C1C (stereo not given in full)", "µM", "=", 37.2],
  ["CC12CCC3(OCCO3)C(OC(=O)c3ccccc3)=C1CCC21OCCO1 (stereo not given)", "µM", ">", 100],
  ["Cc1csc(/C=C/C(=O)c2nnn(-c3ccnc4c(C(F)(F)F)cccc34)c2C)c1", "µM", "=", 99.4],
  ["COc1c2ccoc2c(OC)c2oc(=O)ccc12", "µM", "=", 63.6],
  ["Cc1c2c(c(O)c3c(O)cccc13)C(=O)C1(O)C(O)=C(C(=O)NCNc3ccc(C(N)=O)cn3)C(=O)C(N(C)C)C1C2 (stereo not given)", "µM", "=", 9.22],
  ["O=c1ccn(COC(COCc2ccccc2)COCc2ccccc2)c(=O)[nH]1", "µM", ">", 100]
]}
